- Tested On: pooled human IgG (human IgG1,2,3 and 4)
Reported Metric: Enzyme Activity Endpoint Assay: IgG (ng/µL)

[[record]]
protein = "PRT-179 (protein) MANQEIRYSEVTPYHVTSVWTKGVTPPANFTQGEDVFHAPYVANQGWYDITKTFNGKDDLLCGAATAGNMLHWWFDQNKDQIKRYLEEHPEKQKINFNGEQMFDVKEAIDTKNHQLDSKLFEYFKEKAFPYLSARQLGVFPDHVIDMFINGYRLSLTNHGPTPVKEGSKDPRGGIFDAVFTRGDQSKLLTSRHDFKEKNLKEISDLIKKELTEGKALGLSHTYANVRINHVINLWGADFDSNGNLKAIYVTDSDSNASIGMKKYFVGVNSAGKVAISAKEIKEDNIGAQVLGLFTLSTGQDSWNQTN"
reported_metric = "Enzyme Activity Endpoint Assay: IgG"
numeric_readout = 0

[[record]]
protein = "PRT-96 (protein) MANQEIRYSEVTPYTVTSVWTKGVTPPADFTQGEDVFHAPYVANQGWYDITKTFNGKDDLLCGAATAGNMLHWWFDQNKEKIEAYLKKHPDKQKIMFGDQELLDVRKAINTKGDQTNSELFNYFRDKAFPGLSARRIGVMPDLVLDMFINGYYLNVYKTQTTDVNRTYQEKDRRGGIFDAVFTRGDQSKLLTSRHDFKEKNLKEISDLIKKELTEGKALGLSHTYANVRINHVINLWGADFDSEGNLKAIYVTDSDSNASIGMKKYFVGVNSAGKVAISAKEIKEDNIGAQVLGLFTLSTGQDSWNQTN"
reported_metric = "Enzyme Activity Endpoint Assay: IgG"
numeric_readout = 0

[[record]]
protein = "PRT-446 (protein) MVTSVWTKGVTPPTDFIKGEDVFHAPYKAGQGWYDITKTFNGKDDLLCGAATAGNMLHWWFDQNKDQIEAYLKEHPEKQKINFNGEQMFDVKEAIDTKDDQTNSKLFEYFKEKAFPYLSTKHLGVFPDHVLDMFINGYRLSLTNHGPTPVKEGSKDPRGGIFDAVFTRGDQSKLLTSRHDFKEKTLKEISDLIKQELTEGKALALSHTYANVRINHVINLWGADFDSNGNLEAIYVTDSDSNASIGMKKYFVGVNSAGKVAISAKEIEDDNIGAQVLGLFTLSTGQDIWNQTNLEHHHHHH"
reported_metric = "Enzyme Activity Endpoint Assay: IgG"
numeric_readout = 0

[[record]]
protein = "PRT-283 (protein) MVTSVWTKGVTPPAKFTQGEDVFHAPYDANQGWYDITKTFNGKDDLLCGAATAGNMLHWWFDQNKEKIEAYLKKHPDKQKIMFGDQELLDVRKVINTKGDQTNSELFNYFRDKAFPNLSARRIGVMPDLVLDMFINGYYLNVYKTQTTDVNRTYQEKDRRGGIFDAVFTRGDQSKLLTSRHDFKEKNLKEISDLIKKELTEGKALGLSHTYANVRISHVINLWGADFDSNGNLKAIYVTDSDSNASIGMKKYFVGVNSAGKVAISAKEIKEDNIGAQVLGLFTLSTGQDSWNQTN"
reported_metric = "Enzyme Activity Endpoint Assay: IgG"
numeric_readout = 186

[[record]]
protein = "PRT-309 (protein) MQITSVWTKGVTPLTPEQFRENNEDVIHAPYLAHQGWYDITKAFDGKDNLLCGAATAGNMLHWWFDQNKTEIEAYLSKHPEKQKIIFGNQELFDLKAAIDTKDSQTNSQLFDYFRDKAFPNLSARQLGVMPDLVLDMFINGYYLNVGKTQSTDVNRPYQDKDKRGGIFDAVFTRGDQTTLLTARHDLKNKGLNDISTIIKQELTEGRALALSHTYANVSISHVINLWGADFDAEGNLEAIYVTDSDANASIGMKKYFVGRNAHGHVAISAKKIEGENIGAQVLGLFTLSSGKDQWQKLS"
reported_metric = "Enzyme Activity Endpoint Assay: IgG"
numeric_readout = 1650

[[record]]
protein = "PRT-513 (protein) MITSVWTKGVTPPAKFTQGEDVFHAPYVANQGWYDITKTFNGKDDLLCGAATAGNMLHWWFDQNKEEIEAYLKKHPEKQKIMFGDQELLDVRKVINTKDSQTNSALFNYFKDKAFPNLSARRLGVMPDLVLDMFINGYYLNVYKTQTTDVNRTYQTKDRRGGIFDAVFTRGDQSKLLTERHDLKNKTLKEISDLIKQELTEGKALGLSHTYANVRINHVINLWGADFDSNGNLEAIYVTDSDSNASIGMKKYFVGVNSAGKVAISAKEIKEDNIGAQVLGLFTLSTGQDIWNQTNLEHHHHHH"
reported_metric = "Enzyme Activity Endpoint Assay: IgG"
numeric_readout = 374

[[record]]
protein = "PRT-188 (protein) MANQEIRYSEVTPYHVTSVWTKGVTPPANFRKIVDGNIAYYAAPYVANQGWYDITKTFNGKDDLLCGAATAGNMLHWWFDQNKDQIKRYLEEHPEKQKINFNGEQMFDVKELNTYESDHGYRDKSKLFEYFKEKAFPYLSTKHLGVFPDHVIDMFINGYRLSLTNHGPTPVKEGSKDPRGGIFDAVFTRGDQSKLLTSRHDFKEKNLKEISDLIKKELTEGKALGLSHTYANVRINHVINLWGADFDSNGNLKAIYVTDSDDKKLTIGDERIGMKKYFVGVNSAGKVAISAKEIKEDNIGAQVLGLFTLSTGQDSWNQTN"
reported_metric = "Enzyme Activity Endpoint Assay: IgG"
numeric_readout = 905

[[record]]
protein = "PRT-92 (protein) MANQEIRYSEVTPYTITSVWTKGVTPPADFTQGEDVFHAPYVANQGWYDITKTFNGKDDLLCGAATAGNMLHWWFDQNKEKIEAYLKKHPEKQKIMFGDQELLDVRKAINTKDDQTNSELFNYFRDKAFPNLSARRLGVMPDLVLDMFINGYYLNVYKTQTTDVNRTYQEKDKRGGIFDAVFTRGDQSKLLTSRHDFKEKNLKEISDLIKQELTEGKALGLSHTYANVRINHVINLWGADFDSEGNLKAIYVTDSDSNASIGMKKYFVGVNSAGKVAISAKEIKEDNIGAQVLGLFTLSTGQDIWNQTN"
reported_metric = "Enzyme Activity Endpoint Assay: IgG"
numeric_readout = 8


Recorded values, source patent US20250027068.
